Measured mass density accompanies every entry in the list below.
# run.conditions: 313.15 K; 101.33 kPa; Liquid; Vibrating tube method
Answer in kg/m3, number only, no unit symbol.

Answered cases to consult:
{"columns": ["compound", "mass density [kg/m3]"],
 "data": [
  ["c1ccccc1 [benzene]", 857.59],
  ["CCN(CC)CC [triethylamine]", 709.05],
  ["C1CCCCC1 [cyclohexane]", 759.52],
  ["CCCCN(CCCC)CCCC [tributylamine]", 763.11]
]}

What mass density value was documented for this compound, CCCNCCC [dipropylamine] ?
726.15

What mass density value was documented for this compound, CCCN [propan-1-amine] ?
696.04

What mass density value was documented for this compound, CCCCN [1-butanamine] ?
719.17

What mass density value was documented for this compound, CCCN(CCC)CCC [tripropylamine] ?
740.41

What mass density value was documented for this compound, CCCCNCCCC [dibutylamine] ?
743.44
